Target: T1, Di-phosphorylated BAF (BAF phosphorylated by VRK1 on Thr3 and Ser4) (human, UniProt O75531 1-89, glycine as residue 1 instead of the native methionine | C67 mutated into …, phosphothreonine at 3, phosphoserine at 4)
T1 sequence: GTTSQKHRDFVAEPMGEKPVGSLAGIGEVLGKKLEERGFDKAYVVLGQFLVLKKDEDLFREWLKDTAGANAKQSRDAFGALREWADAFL
Test: ITC; phosphorylated BAF (pThr3, pSer4)
MEASURED_QUANTITY: pKd
For clarity, pKd is expressed as the negative log10 of concentration in mol/L.

Q: // returns reported pKd for input MDNYADLSDTELTTLLRRYNIPHGPVVGSTRRLYEKKIFEYETQRR (domain or fragment, UniProt P50402 1-46, looked up, human emerin, residues 1-46 (LEM domain); also called emerin LEM domain; LEM fragment) [LEM domain of human emerin from amino acid 1 to amino acid 46]
Result: 6.15

Reference for the values: paper PMC8053085
